Data origin, for the record: ChEMBL document CHEMBL1136863

biological target: Mitogen-activated protein kinase 1 (Homo sapiens); assay: Inhibition of ERK2
Sequence (P28482 whole entry): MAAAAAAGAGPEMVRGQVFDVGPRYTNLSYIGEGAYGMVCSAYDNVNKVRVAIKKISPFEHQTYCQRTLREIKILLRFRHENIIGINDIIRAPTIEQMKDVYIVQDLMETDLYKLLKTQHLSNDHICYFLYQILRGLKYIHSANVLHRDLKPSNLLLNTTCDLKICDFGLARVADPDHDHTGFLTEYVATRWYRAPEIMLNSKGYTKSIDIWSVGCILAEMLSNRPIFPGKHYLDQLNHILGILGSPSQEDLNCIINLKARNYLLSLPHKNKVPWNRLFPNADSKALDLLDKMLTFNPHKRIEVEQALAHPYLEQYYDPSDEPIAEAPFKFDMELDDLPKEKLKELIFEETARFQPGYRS
assayEndpoint: pIC50
The value called pIC50 is obtained by taking minus log10 of the concentration in mol/L.

Examples with their reported pIC50 follow.
compound | pIC50
NC(=O)C(Nc1c(Nc2ccncc2)c(=O)c1=O)c1cccc(O)c1 (stereo not given) | 5.38
NC(=O)C(Nc1c(Nc2ccncc2)c(=O)c1=O)c1ccccc1 (stereo not given) | 5.20

Shifting focus to the compound that follows.
Value of pIC50 reported for the compound `C[C@@H](Nc1c(Nc2ccnc(-c3ccco3)c2)c(=O)c1=O)c1ccccc1` is 4.46

###

Lab note: pIC50 readings collected with MAP kinase-activated protein kinase 2 (Homo sapiens) for the following compounds.
Sequence (P49137 whole entry): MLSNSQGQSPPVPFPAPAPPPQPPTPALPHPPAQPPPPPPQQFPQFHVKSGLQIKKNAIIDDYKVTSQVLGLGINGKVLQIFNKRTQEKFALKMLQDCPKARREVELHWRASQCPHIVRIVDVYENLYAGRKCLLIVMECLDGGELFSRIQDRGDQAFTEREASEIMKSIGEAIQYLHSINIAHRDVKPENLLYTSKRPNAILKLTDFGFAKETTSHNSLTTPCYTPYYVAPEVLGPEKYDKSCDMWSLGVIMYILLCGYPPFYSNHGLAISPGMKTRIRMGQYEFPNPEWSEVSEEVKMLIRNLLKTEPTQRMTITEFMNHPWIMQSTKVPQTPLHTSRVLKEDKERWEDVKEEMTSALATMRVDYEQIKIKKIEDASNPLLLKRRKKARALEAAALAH
The value called pIC50 is obtained by taking minus log10 of the concentration in mol/L.

Observed pIC50, MAP kinase-activated protein kinase 2 (Homo sapiens), `C[C@@H](Nc1c(Nc2ccnc(-c3ccsc3)c2)c(=O)c1=O)c1ccccc1` : 5.27

Observed pIC50, MAP kinase-activated protein kinase 2 (Homo sapiens), NC(=O)C(Nc1c(Nc2ccncc2)c(=O)c1=O)c1ccccc1 (stereo unspecified) : 5.35

Observed pIC50, MAP kinase-activated protein kinase 2 (Homo sapiens), `C[C@@H](Nc1c(Nc2ccnc(-c3ccccc3F)c2)c(=O)c1=O)c1ccccc1` : 5.24

Observed pIC50, MAP kinase-activated protein kinase 2 (Homo sapiens), `C[C@@H](Nc1c(Nc2ccnc(-c3ccco3)c2)c(=O)c1=O)c1ccccc1` : 5.28

Observed pIC50, MAP kinase-activated protein kinase 2 (Homo sapiens), NC(=O)C(Nc1c(Nc2ccncc2)c(=O)c1=O)c1cccc(O)c1 (stereo unspecified) : 6.41

###

Lab note: pIC50 readings collected with UniProt Q96GD4 for the following compounds.
Sequence (Q96GD4 whole entry): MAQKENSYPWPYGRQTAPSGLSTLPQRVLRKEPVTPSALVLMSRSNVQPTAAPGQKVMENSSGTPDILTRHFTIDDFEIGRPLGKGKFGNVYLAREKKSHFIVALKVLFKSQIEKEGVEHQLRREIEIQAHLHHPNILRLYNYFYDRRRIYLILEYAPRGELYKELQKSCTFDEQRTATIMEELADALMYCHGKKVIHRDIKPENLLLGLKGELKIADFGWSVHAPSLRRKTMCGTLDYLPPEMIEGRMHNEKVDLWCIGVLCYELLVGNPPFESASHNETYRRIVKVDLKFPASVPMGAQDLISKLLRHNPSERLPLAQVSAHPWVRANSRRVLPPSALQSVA
The value called pIC50 is obtained by taking minus log10 of the concentration in mol/L.

Examples with their reported pIC50 follow.
compound | pIC50
C[C@@H](Nc1c(Nc2ccnc(-c3ccsc3)c2)c(=O)c1=O)c1ccccc1 | 4.97
NC(=O)C(Nc1c(Nc2ccncc2)c(=O)c1=O)c1ccccc1 (stereo not drawn) | 5.22

Shifting focus to the compound that follows.
Value of pIC50 reported for the compound NC(=O)C(Nc1c(Nc2ccncc2)c(=O)c1=O)c1cccc(O)c1 (stereo not drawn) is 5.85

###

Lab note: pIC50 readings collected with Platelet-derived growth factor receptor alpha (Homo sapiens, UniProt P16234) for the following molecules.
Sequence (P16234 whole entry): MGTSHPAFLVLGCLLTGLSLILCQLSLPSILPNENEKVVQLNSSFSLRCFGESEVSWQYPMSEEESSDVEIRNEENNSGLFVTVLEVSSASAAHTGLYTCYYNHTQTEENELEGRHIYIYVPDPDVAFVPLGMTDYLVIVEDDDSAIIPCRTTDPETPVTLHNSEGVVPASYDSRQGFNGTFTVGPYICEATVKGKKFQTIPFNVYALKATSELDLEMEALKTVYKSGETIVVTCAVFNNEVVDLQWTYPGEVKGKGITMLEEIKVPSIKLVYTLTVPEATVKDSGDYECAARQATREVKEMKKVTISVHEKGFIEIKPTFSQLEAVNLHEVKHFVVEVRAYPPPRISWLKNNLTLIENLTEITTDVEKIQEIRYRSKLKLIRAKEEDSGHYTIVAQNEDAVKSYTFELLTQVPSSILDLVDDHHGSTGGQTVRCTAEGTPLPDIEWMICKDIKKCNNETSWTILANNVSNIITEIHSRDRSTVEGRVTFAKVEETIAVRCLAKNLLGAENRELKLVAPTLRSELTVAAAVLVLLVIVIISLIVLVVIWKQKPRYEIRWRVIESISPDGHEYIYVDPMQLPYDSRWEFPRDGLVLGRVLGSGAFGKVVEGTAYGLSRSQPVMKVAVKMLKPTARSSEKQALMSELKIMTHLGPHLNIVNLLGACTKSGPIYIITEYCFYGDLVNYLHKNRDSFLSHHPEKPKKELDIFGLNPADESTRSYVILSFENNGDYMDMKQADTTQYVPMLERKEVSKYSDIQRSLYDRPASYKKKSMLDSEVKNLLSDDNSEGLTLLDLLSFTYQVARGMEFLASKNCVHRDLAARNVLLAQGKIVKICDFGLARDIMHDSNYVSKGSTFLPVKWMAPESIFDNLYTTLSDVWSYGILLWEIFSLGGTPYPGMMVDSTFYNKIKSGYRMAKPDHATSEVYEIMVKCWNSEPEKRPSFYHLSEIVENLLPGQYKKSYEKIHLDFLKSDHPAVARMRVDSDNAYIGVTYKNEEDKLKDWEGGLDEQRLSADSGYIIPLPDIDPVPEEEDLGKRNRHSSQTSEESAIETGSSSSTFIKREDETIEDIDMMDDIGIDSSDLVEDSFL
The value called pIC50 is obtained by taking minus log10 of the concentration in mol/L.

molecule | testTarget | pIC50
C[C@@H](Nc1c(Nc2ccncc2)c(=O)c1=O)c1ccccc1 | Platelet-derived growth factor receptor alpha (Homo sapiens, UniProt P16234) | 4.39

Shifting focus to the molecule that follows.
Observed pIC50, Platelet-derived growth factor receptor alpha (Homo sapiens, UniProt P16234), NC(=O)C(Nc1c(Nc2ccncc2)c(=O)c1=O)c1cccc(O)c1 (configuration not stated) : 4.95

###

target: Casein kinase I isoform gamma-1 (Homo sapiens, UniProt Q9HCP0); assay: Inhibition of CK1-gamma1
Sequence (Q9HCP0 whole entry, canonical isoform): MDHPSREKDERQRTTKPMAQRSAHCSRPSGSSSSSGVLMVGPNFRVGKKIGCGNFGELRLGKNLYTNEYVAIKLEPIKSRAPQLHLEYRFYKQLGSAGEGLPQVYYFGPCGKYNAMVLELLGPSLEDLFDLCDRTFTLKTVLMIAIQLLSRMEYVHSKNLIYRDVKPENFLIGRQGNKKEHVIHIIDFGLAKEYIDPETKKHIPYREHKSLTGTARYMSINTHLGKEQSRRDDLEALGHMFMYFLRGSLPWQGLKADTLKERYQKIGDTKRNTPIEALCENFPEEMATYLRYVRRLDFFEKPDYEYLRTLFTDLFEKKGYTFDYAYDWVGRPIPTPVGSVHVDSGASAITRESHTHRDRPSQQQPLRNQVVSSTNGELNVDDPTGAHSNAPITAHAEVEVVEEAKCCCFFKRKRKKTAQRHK
Reported IC50 by item:

compound | IC50
NC(=O)C(Nc1c(Nc2ccncc2)c(=O)c1=O)c1cccc(O)c1 (stereo not given) | 0.16 µM
C[C@@H](Nc1c(Nc2ccnc(-c3ccsc3)c2)c(=O)c1=O)c1ccccc1 | 11.6 µM
C[C@@H](Nc1c(Nc2ccnc(-c3ccccc3F)c2)c(=O)c1=O)c1ccccc1 | > 50 µM
C[C@@H](Nc1c(Nc2ccnc(-c3ccco3)c2)c(=O)c1=O)c1ccccc1 | 4.9 µM

Shifting focus to the compound that follows.
Observed IC50, Casein kinase I isoform gamma-1 (Homo sapiens, UniProt Q9HCP0), NC(=O)C(Nc1c(Nc2ccncc2)c(=O)c1=O)c1ccccc1 (stereo not given) : 0.52 µM

###

target: Cytochrome P450 2D6 (Homo sapiens, UniProt P10635)
Sequence (P10635 whole entry): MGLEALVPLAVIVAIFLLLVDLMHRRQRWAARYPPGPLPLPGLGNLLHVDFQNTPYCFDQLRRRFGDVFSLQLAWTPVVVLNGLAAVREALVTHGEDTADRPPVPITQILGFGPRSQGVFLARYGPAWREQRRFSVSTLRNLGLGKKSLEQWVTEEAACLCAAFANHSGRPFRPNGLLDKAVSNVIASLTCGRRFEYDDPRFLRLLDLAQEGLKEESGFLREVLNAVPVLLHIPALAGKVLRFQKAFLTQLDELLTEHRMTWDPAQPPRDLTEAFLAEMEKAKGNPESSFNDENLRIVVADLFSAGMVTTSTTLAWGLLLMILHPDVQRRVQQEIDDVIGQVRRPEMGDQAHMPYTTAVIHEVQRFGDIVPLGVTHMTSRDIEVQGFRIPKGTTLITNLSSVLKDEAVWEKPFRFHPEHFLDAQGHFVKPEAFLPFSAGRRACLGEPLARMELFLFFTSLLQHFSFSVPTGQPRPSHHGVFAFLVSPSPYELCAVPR
assayEndpoint: IC50 (µM)
The reply should contain only the number, in µM.

Observed IC50, Cytochrome P450 2D6 (Homo sapiens, UniProt P10635), `C[C@@H](Nc1c(Nc2ccncc2)c(=O)c1=O)c1ccccc1` : 3.3

###

target: CYP3A4 (Homo sapiens); experiment: Inhibition of CYP3A4 at 3 uM; format: ADME
assayEndpoint: inhibition at 3 µM (%)
The reply should contain only the number, in %.

Value of inhibition at 3 µM reported for the compound `C[C@@H](Nc1c(Nc2cccnc2)c(=O)c1=O)c1ccccc1` is 16

###

pIC50: −log10 of the molar value.
Lab note: pIC50 readings collected with Protein kinase C alpha type (Homo sapiens) for the following molecules.

molecule | pIC50
C[C@@H](Nc1c(Nc2ccncc2)c(=O)c1=O)c1ccccc1 | < 4.30
C[C@@H](Nc1c(Nc2ccnc(-c3ccccc3F)c2)c(=O)c1=O)c1ccccc1 | < 4.30
C[C@@H](Nc1c(Nc2ccnc(-c3ccsc3)c2)c(=O)c1=O)c1ccccc1 | < 4.30
C[C@@H](Nc1c(Nc2ccnc(-c3ccco3)c2)c(=O)c1=O)c1ccccc1 | < 4.30

Shifting focus to the molecule that follows.
Observed pIC50, Protein kinase C alpha type (Homo sapiens), NC(=O)C(Nc1c(Nc2ccncc2)c(=O)c1=O)c1cccc(O)c1 (stereo not given) : 4.47

###

molecular target: CYP2C9 (Homo sapiens, UniProt P11712); assay: Inhibition of CYP2C9 at 3 uM; type: ADME
Sequence (P11712 whole entry): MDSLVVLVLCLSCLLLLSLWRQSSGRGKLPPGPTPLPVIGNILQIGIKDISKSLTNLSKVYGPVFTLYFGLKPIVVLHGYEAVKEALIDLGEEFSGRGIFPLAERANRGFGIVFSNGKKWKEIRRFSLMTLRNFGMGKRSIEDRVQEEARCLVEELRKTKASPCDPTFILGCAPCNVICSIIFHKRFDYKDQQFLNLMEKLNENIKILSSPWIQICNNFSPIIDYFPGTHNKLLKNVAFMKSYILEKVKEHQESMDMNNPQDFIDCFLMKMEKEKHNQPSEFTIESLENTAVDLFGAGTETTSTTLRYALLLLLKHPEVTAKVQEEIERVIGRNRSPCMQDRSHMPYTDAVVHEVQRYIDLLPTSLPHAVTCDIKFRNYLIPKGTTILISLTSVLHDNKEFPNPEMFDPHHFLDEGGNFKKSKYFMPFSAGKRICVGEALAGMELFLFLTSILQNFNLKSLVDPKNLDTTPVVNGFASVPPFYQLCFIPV
assayEndpoint: inhibition at 3 µM (%)
The reply should contain only the number, in %.

Value of inhibition at 3 µM reported for the compound `C[C@@H](Nc1c(Nc2cccnc2)c(=O)c1=O)c1ccccc1` is 1

###

target: Mitogen-activated protein kinase 14 (Homo sapiens, UniProt Q16539); assay: Inhibition of p38alpha
Sequence (Q16539 whole entry): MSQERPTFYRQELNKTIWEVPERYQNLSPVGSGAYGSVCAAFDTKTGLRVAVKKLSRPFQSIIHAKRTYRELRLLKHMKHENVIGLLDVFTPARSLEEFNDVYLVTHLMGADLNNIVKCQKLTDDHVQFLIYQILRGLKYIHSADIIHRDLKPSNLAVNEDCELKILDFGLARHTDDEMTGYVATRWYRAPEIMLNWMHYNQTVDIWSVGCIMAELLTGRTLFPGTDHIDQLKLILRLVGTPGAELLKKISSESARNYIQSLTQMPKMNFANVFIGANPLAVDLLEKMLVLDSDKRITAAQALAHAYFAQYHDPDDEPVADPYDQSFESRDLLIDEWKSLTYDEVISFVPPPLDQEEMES
pIC50: −log10 of the molar value.
assayEndpoint: pIC50

Examples with their reported pIC50 follow.
compound | testTarget | pIC50
NC(=O)C(Nc1c(Nc2ccncc2)c(=O)c1=O)c1ccccc1 (stereo unspecified) | Mitogen-activated protein kinase 14 (Homo sapiens, UniProt Q16539) | < 4.30
C[C@@H](Nc1c(Nc2ccnc(-c3ccccc3F)c2)c(=O)c1=O)c1ccccc1 | Mitogen-activated protein kinase 14 (Homo sapiens, UniProt Q16539) | 4.66
C[C@@H](Nc1c(Nc2ccncc2)c(=O)c1=O)c1ccccc1 | Mitogen-activated protein kinase 14 (Homo sapiens, UniProt Q16539) | < 4.30
C[C@@H](Nc1c(Nc2ccnc(-c3ccsc3)c2)c(=O)c1=O)c1ccccc1 | Mitogen-activated protein kinase 14 (Homo sapiens, UniProt Q16539) | < 4.30
C[C@@H](Nc1c(Nc2ccnc(-c3ccco3)c2)c(=O)c1=O)c1ccccc1 | Mitogen-activated protein kinase 14 (Homo sapiens, UniProt Q16539) | < 4.30

Shifting focus to the compound that follows.
Observed pIC50, Mitogen-activated protein kinase 14 (Homo sapiens, UniProt Q16539), NC(=O)C(Nc1c(Nc2ccncc2)c(=O)c1=O)c1cccc(O)c1 (stereo unspecified) : < 4.30

###

target: Ribosomal protein S6 kinase alpha-1 (Homo sapiens)
Sequence (Q15418 whole entry): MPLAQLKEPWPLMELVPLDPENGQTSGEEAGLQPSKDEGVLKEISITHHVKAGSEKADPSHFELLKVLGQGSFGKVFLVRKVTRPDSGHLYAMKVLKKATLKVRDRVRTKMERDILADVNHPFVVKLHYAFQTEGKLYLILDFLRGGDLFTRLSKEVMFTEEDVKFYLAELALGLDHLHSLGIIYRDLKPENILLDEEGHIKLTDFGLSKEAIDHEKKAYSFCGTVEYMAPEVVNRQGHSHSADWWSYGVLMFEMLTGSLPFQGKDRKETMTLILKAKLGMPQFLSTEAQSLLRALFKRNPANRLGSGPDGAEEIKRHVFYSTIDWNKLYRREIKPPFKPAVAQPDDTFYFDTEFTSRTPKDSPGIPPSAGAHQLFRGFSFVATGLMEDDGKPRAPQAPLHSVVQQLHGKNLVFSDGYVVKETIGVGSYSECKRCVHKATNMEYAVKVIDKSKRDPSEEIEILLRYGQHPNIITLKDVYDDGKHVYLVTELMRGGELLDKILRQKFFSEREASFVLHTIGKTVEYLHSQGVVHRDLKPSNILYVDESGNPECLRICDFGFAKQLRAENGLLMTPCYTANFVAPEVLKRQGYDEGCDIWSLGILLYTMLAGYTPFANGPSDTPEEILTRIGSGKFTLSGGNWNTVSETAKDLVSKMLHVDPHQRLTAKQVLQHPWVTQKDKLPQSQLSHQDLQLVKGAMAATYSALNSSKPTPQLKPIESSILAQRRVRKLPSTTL
assayEndpoint: pIC50
The value called pIC50 is obtained by taking minus log10 of the concentration in mol/L.

compound | measured
C[C@@H](Nc1c(Nc2ccncc2)c(=O)c1=O)c1ccccc1 | 6.09

Shifting focus to the compound that follows.
Observed pIC50, Ribosomal protein S6 kinase alpha-1 (Homo sapiens), NC(=O)C(Nc1c(Nc2ccncc2)c(=O)c1=O)c1cccc(O)c1 (centres undefined) : 6.54
